- target_or_system: Factor IXa (Homo sapiens (Human))
- experimental_details: Determination of inhibitory activity against Factor IXa (cleavage of fluorescent peptide CH3SO2-D-CHG-Gly-Arg-AFC)
- Assay type: biochemical
- recorded_conditions: read-out: hFIXa IC50
Doc: threshold 3 nM (exclusive). Items with IC50 beneath it return 1.0; others return 0.0.

compound	group
Cc1ccc(F)c2nc([C@@H](CNC(=O)c3ccc(-n4cnn(C)c4=O)cc3Cl)c3cccc(F)c3)[nH]c(=O)c12 [Example 109]	1.0
COc1cc2nc(C(CNC(=O)c3c(Cl)cc(-n4cnc(C)n4)cc3Cl)c3cccc(F)c3)[nH]c2cc1Cl (stereo not shown) [Example 48]	1.0
COC(=O)c1ccc(-c2cc(Cl)c(C(=O)NCC(c3ccccc3)c3nc4cc(C)c(C)cc4[nH]3)c(Cl)c2)cn1 (stereo not shown) [Example 23]	0.0
Cc1ncn(-c2cc(C)c(C(=O)NCC(c3ccccc3)c3nc4cc(C)c(C)cc4[nH]3)c(Cl)c2)n1 (stereo not shown) [Example 8]	0.0
Cc1ncn(-c2cc(Cl)c(C(=O)NCC(c3cccc(F)c3)c3nc4cc(C)c(C)cc4[nH]c3=O)c(Cl)c2)n1 (stereo not shown) [Example 116]	0.0
COc1cc2nc([C@@H](CNC(=O)c3c(Cl)cc(-n4cnc(C)n4)cc3Cl)c3ccc(C(=O)O)cc3)[nH]c2cc1Cl [Example 60]	0.0
Cc1cc2nc(C(CNC(=O)c3c(Cl)cc(-n4cnnc4)cc3Cl)c3ccc(F)cc3)[nH]c2cc1C (stereo not shown) [Example 53]	1.0

----------
# IC50 per entry
- target_or_system: Factor IXa (Homo sapiens (Human), UniProt P00740)
- Sequence (P00740 227-461): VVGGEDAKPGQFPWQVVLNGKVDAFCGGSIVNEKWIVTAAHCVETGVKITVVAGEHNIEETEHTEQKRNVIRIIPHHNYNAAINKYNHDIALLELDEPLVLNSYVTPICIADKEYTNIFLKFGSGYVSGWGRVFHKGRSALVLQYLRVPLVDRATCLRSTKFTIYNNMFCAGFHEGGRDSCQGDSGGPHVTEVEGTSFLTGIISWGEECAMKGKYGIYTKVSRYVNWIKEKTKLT
- Sequence (P00740 47-191 partner): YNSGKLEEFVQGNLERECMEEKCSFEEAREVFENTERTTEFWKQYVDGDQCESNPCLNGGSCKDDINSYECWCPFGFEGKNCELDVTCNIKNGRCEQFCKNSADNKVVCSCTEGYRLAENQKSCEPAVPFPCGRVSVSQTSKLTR
- experimental_details: Determination of inhibitory activity against Factor IXa (cleavage of fluorescent peptide CH3SO2-D-CHG-Gly-Arg-AFC)
- Assay type: biochemical
- recorded_conditions: read-out: hFIXa IC50

molecule	IC50
Cc1ncn(-c2cc(Cl)c(C(=O)NC[C@@H](c3cccnc3)c3nc4c(F)ccc(C)c4c(=O)n3C)c(Cl)c2)n1 [Example 110]	8.9 nM
Cc1ncn(-c2cc(Cl)c(C(=O)NCC(c3ccccc3)c3nc4cc(C)c(C)cc4[nH]3)c(Cl)c2)n1 (stereo not shown) [Example 6]	20.8 nM
Cc1cc2nc(C(CNC(=O)c3c(Cl)cc(-c4cnc5c(c4)CNC5=O)cc3Cl)c3ccccc3)[nH]c2cc1C (stereo not shown) [Example 24]	141 nM
Cc1ccc(F)c2nc(C(CNC(=O)c3ccc(-n4cnnc4)cc3Cl)c3ccccc3)[nH]c(=O)c12 (stereo not shown) [Example 101]	6.68 nM

----------
# pIC50 per entry
- target_or_system: Factor IXa (Homo sapiens (Human), UniProt P00740)
- experimental_details: Determination of inhibitory activity against Factor IXa (cleavage of fluorescent peptide CH3SO2-D-CHG-Gly-Arg-AFC)
- Assay type: biochemical
- recorded_conditions: read-out: hFIXa IC50
pIC50: −log10 of the molar value.

molecule	target_or_system	pIC50
Cc1ncn(-c2cc(Cl)c(C(=O)NC[C@@H](c3cccc(F)c3)c3cc(F)c4[nH]c(C)nc4c3)c(Cl)c2)n1	Factor IXa (Homo sapiens (Human), UniProt P00740)	8.19
COc1cc2nc([C@@H](CNC(=O)c3c(Cl)cc(-n4cnc(C)n4)cc3Cl)n3cc(CN(C)C)nn3)[nH]c2cc1Cl	Factor IXa (Homo sapiens (Human), UniProt P00740)	7.17
COc1cc(-n2cnnc2)cc(Cl)c1C(=O)NCC(c1ccccc1)c1nc2cc(C)c(C)cc2[nH]1 (stereo not drawn)	Factor IXa (Homo sapiens (Human), UniProt P00740)	7.83
Cc1cc2nc(C(CNC(=O)c3c(Cl)cc(-n4cnnc4)cc3OC(F)(F)F)c3ccccc3)[nH]c2cc1C (stereo not drawn)	Factor IXa (Homo sapiens (Human), UniProt P00740)	7.40
Cc1cccc2[nH]c(C(CNC(=O)c3ccc(-n4cnnc4)cc3Cl)c3ccccc3)nc12 (stereo not drawn)	Factor IXa (Homo sapiens (Human), UniProt P00740)	6.21
Cc1cc2nc(C(CNC(=O)c3c(Cl)cc(-c4cn[nH]c4)cc3Cl)c3ccccc3)[nH]c2cc1C (stereo not drawn)	Factor IXa (Homo sapiens (Human), UniProt P00740)	6.30
CCOC(=O)c1ccc([C@H](CNC(=O)c2c(Cl)cc(-n3cnc(C)n3)cc2Cl)c2nc3cc(OC)c(Cl)cc3[nH]2)cc1	Factor IXa (Homo sapiens (Human), UniProt P00740)	8.25
Cc1ncn(-c2cc(Cl)c(C(=O)NCC(c3ccccc3)c3nc4cc(C)c(C)cc4[nH]3)c(C(F)(F)F)c2)n1 (stereo not drawn)	Factor IXa (Homo sapiens (Human), UniProt P00740)	7.20
Cc1cc2nc(C(CNC(=O)c3c(C)cc(-n4cnnc4)cc3Cl)c3ccccc3)[nH]c2cc1C (stereo not drawn)	Factor IXa (Homo sapiens (Human), UniProt P00740)	8.09
Cc1cc2nc(C(CNC(=O)c3ccc(-n4cnnc4)cc3Cl)c3ccc(F)cc3)[nH]c2cc1C (stereo not drawn)	Factor IXa (Homo sapiens (Human), UniProt P00740)	8.07
Cc1cc2nc(C(CNC(=O)c3c(Cl)cc(-c4cnn(CS(C)(=O)=O)c4)cc3Cl)c3ccccc3)[nH]c2cc1C (stereo not drawn)	Factor IXa (Homo sapiens (Human), UniProt P00740)	6.40
Cc1cc2nc(C(CNC(=O)c3c(Cl)cc(-c4ccc(CO)nc4)cc3Cl)c3ccccc3)[nH]c2cc1C (stereo not drawn)	Factor IXa (Homo sapiens (Human), UniProt P00740)	7.37
Cc1cc2nc([C@@H](CNC(=O)c3ccc(-n4cnnn4)cc3Cl)c3ccccc3)[nH]c2cc1C	Factor IXa (Homo sapiens (Human), UniProt P00740)	7.11
Cc1ncn(-c2cc(Cl)c(C(=O)NC[C@@H](c3cccc(F)c3)c3ccc4[nH]c(C)nc4c3F)c(Cl)c2)n1	Factor IXa (Homo sapiens (Human), UniProt P00740)	8.71
Cc1cc2nc(C(CNC(=O)c3ccc(-c4ccnc(C(=O)O)c4)cc3Cl)c3ccccc3)[nH]c2cc1C (stereo not drawn)	Factor IXa (Homo sapiens (Human), UniProt P00740)	6.27
O=C(NC[C@@H](c1ccccc1)c1nc2cccc(Cl)c2c(=O)[nH]1)c1ccc(-n2cnnc2)cc1Cl	Factor IXa (Homo sapiens (Human), UniProt P00740)	7.29
O=C(NC[C@@H](c1ccccc1)c1nc2c(Cl)cccc2c(=O)[nH]1)c1ccc(-n2cnnc2)cc1Cl	Factor IXa (Homo sapiens (Human), UniProt P00740)	6.75
Cc1cc2nc(C(CNC(=O)c3ccc(-n4cnnc4)cc3Cl)c3cccnc3)[nH]c2cc1C (stereo not drawn)	Factor IXa (Homo sapiens (Human), UniProt P00740)	7.81
Cc1cc(Cl)cc2[nH]c(C(CNC(=O)c3ccc(-n4cnnc4C)cc3Cl)c3cccc(F)c3)nc12 (stereo not drawn)	Factor IXa (Homo sapiens (Human), UniProt P00740)	8.31
Cc1cc2nc(C(CNC(=O)c3c(Cl)cc(-c4ccc(C(=O)O)nc4)cc3Cl)c3ccccc3)[nH]c2cc1C (stereo not drawn)	Factor IXa (Homo sapiens (Human), UniProt P00740)	6.51
COc1cc2nc(C(CNC(=O)c3c(Cl)cc(-n4cnc(C)n4)cc3Cl)n3cc(C(C)(C)O)nn3)[nH]c2cc1Cl (stereo not drawn)	Factor IXa (Homo sapiens (Human), UniProt P00740)	7.46
COc1cc2nc([C@@H](CNC(=O)c3c(Cl)cc(-n4cnc(C)n4)cc3Cl)c3cnc(N(C)C)nc3)[nH]c2cc1Cl	Factor IXa (Homo sapiens (Human), UniProt P00740)	8.06
Cc1cc2nc(C(CNC(=O)c3c(Cl)cc(-c4cnc5c(c4)CCC(=O)N5)cc3Cl)c3ccccc3)[nH]c2cc1C (stereo not drawn)	Factor IXa (Homo sapiens (Human), UniProt P00740)	6.56
Cc1ncn(-c2cc(Cl)c(C(=O)NCC(c3cccc(F)c3)c3cc4nc(C)[nH]c4cn3)c(Cl)c2)n1 (stereo not drawn)	Factor IXa (Homo sapiens (Human), UniProt P00740)	6.90
Cc1cc2nc(C(CNC(=O)c3c(Cl)cc(-n4cnnc4)cc3Cl)c3ccccc3)[nH]c2cc1C (stereo not drawn)	Factor IXa (Homo sapiens (Human), UniProt P00740)	8.44
Cc1ncn(-c2cc(Cl)c(C(=O)NC[C@@H](c3cccc(F)c3)c3cnc4[nH]c(C)cc4c3)c(Cl)c2)n1	Factor IXa (Homo sapiens (Human), UniProt P00740)	8.43
Cc1ccc(F)c2nc([C@@H](CNC(=O)c3ccc(-n4cnc(CCO)c4)cc3Cl)c3cccc(F)c3)[nH]c(=O)c12	Factor IXa (Homo sapiens (Human), UniProt P00740)	8.14

----------
- target_or_system: Factor IXa (Homo sapiens (Human))
- experimental_details: Determination of inhibitory activity against Factor IXa (cleavage of fluorescent peptide CH3SO2-D-CHG-Gly-Arg-AFC)
- Format: biochemical
- recorded_conditions: read-out: FIXa IC50
Response field class: string, computed from recorded IC50 by ranges L: < 20 nM; M: ≥ 20 nM and < 60 nM; H: ≥ 60 nM

compound	group
O=C(NC[C@@H](c1ccc(F)cc1)c1nc2ccc(Cl)cc2o1)c1c(Cl)cc(-n2cnnc2)cc1Cl	H
COc1ccc(C(CNC(=O)c2c(Cl)cc(-n3cnc(C)n3)cc2Cl)c2nc3ccc(Cl)cc3[nH]2)cn1 (racemic)	M
Cc1ccc2c(cnn2[C@H](CNC(=O)c2ccc(-n3cnnc3)cc2Cl)c2ccccc2)c1	M
Cc1ccc2c(cnn2[C@H](CNC(=O)c2c(Cl)cc(-n3cc(CCO)nn3)cc2Cl)c2cnco2)c1	L
Cc1ncn(-c2cc(Cl)c(C(=O)NC[C@@H](c3ccc(C(=O)O)cc3)c3nc4c(C)cc(Cl)cc4[nH]3)c(Cl)c2)n1	L
Cc1ccc2nc([C@@H](CNC(=O)c3ccc(-n4cnnc4)cc3Cl)c3ccccc3)[nH]c(=O)c2c1	H
Cc1ncn(-c2cc(Cl)c(C(=O)NC[C@@H](c3cccc(F)c3)c3cnc4[nH]c(C)nc4c3)c(Cl)c2)n1	H
Cc1cc2nc([C@@](C)(CNC(=O)c3c(Cl)cc(-n4cnnc4)cc3Cl)c3ccc(F)cc3)[nH]c2cc1C	L
Cc1cc2nc(C(CNC(=O)c3c(Cl)cc(-n4cc(CCO)nn4)cc3Cl)c3ccccc3)[nH]c2cc1C (single isomer, unassigned)	L
Cc1cc2nc([C@@H](CNC(=O)c3ccc(-n4cnnc4)cc3Cl)c3ccccc3)[nH]c2cc1C	L
Cc1ccc2nn([C@@H](CNC(=O)c3ccc(-n4cnnc4)cc3Cl)c3ccccc3)cc2c1	H
Cc1cc2nc([C@@H](CNC(=O)c3c(Cl)cc(-n4cnnc4)cc3Cl)c3cncc(F)c3)[nH]c2cc1C	L
